# Tested on: Zr-75-1
endpoint.name: log10 GI50 (log10 of the value in µM)

>>> val("COc1cccc2c1C(=O)c1c(O)c3c(c(O)c1C2=O)C[C@@](O)(C(=O)CO)C[C@@H]3O[C@H]1C[C@H](N)[C@H](O)[C@H](C)O1 [ADR, adriamycin, reference compound]")
-0.96
>>> val("COc1cc(C2C3=C(COC3=O)Nc3onc(-c4ccc(Cl)cc4)c32)cc(OC)c1OC (centres unmarked)")
-0.72
>>> val("COc1cc(C2C3=C(COC3=O)Nc3ccc4nc(C)sc4c32)ccc1O (centres unmarked)")
-0.77
>>> val("COc1ccc(-c2noc3c2C(c2ccc(OC)c(O)c2)C2=C(COC2=O)N3)cc1 (centres unmarked)")
-0.85
>>> val("COc1ccc(C2C3=C(COC3=O)Nc3ccc4cn[nH]c4c32)cc1[N+](=O)[O-] (centres unmarked)")
-0.85
>>> val("COc1cc(C2C3=C(COC3=O)Nc3ccc4cn[nH]c4c32)ccc1O (centres unmarked)")
0.32
>>> val("COc1cc(C2C3=C(COC3=O)Nc3ccc4cc[nH]c4c32)ccc1F (centres unmarked)")
0.40
>>> val("COc1cc(C2C3=C(COC3=O)Nc3ccc4ncsc4c32)cc(OC)c1OC (centres unmarked)")
0.32

---

# Tested on: Colo 205
Lab note: anything with GI50 below 2000 nM is marked t; values at 2000 nM or higher are marked f.

>>> class_label("COc1cc(C2C3=C(COC3=O)Nc3ccc4ncsc4c32)cc(OC)c1OC (stereo not shown)")
"f"
>>> class_label("COc1ccc(C2C3=C(COC3=O)Nc3ccc4cc(C)[nH]c4c32)cc1O (stereo not shown)")
"f"
>>> class_label("COc1ccc(C2C3=C(COC3=O)Nc3ccc4ncsc4c32)cc1O (stereo not shown)")
"t"
>>> class_label("COc1ccc(C2C3=C(COC3=O)Nc3ccc4cc[nH]c4c32)cc1[N+](=O)[O-] (stereo not shown)")
"f"
>>> class_label("COc1ccc(-c2noc3c2C(c2ccc(OC)c(O)c2)C2=C(COC2=O)N3)cc1 (stereo not shown)")
"f"
>>> class_label("COc1nc2c(c(OC)n1)C(c1cc(OC)c(OC)c(OC)c1)C1=C(COC1=O)N2 (stereo not shown)")
"t"

---

// GI50 collected for Gurav
endpoint.name: GI50 (nM)

>>> val("COc1ccc(C2C3=C(COC3=O)Nc3ccc4ncsc4c32)cc1O (centres unmarked) [Compound 4u]")
190
>>> val("COc1ccc(C2C3=C(COC3=O)Nc3ccc4cc(C)[nH]c4c32)cc1O (centres unmarked) [Compound 4k]")
170
>>> val("COc1cc(C2C3=C(COC3=O)Nc3ccc4cc[nH]c4c32)ccc1O (centres unmarked) [Compound 4f]")
2600
>>> val("COc1cc(C2C3=C(COC3=O)Nc3ccc4cn[nH]c4c32)ccc1F (centres unmarked) [Compound 4q]")
2600
>>> val("COc1cc(C2C3=C(COC3=O)Nc3ccc4cn[nH]c4c32)cc(OC)c1OC (centres unmarked) [Compound 4n]")
160
>>> val("COc1nc2c(c(OC)n1)C(c1cc(OC)c(OC)c(OC)c1)C1=C(COC1=O)N2 (centres unmarked) [Compound 4a]")
2000
>>> val("COc1ccc(C2C3=C(COC3=O)Nc3ccc4cc[nH]c4c32)cc1O (centres unmarked) [Compound 4g]")
2300

---

// log10 GI50 collected for Zr-75-1
endpoint.name: log10 GI50 (log10 of the value in nM)

>>> val("COc1cc(C2C3=C(COC3=O)Nc3ccc4cn[nH]c4c32)cc(OC)c1OC (centres unmarked)")
2.20
>>> val("COc1cc(C2C3=C(COC3=O)Nc3ccc4cc[nH]c4c32)cc(OC)c1OC (centres unmarked)")
3.45
>>> val("COc1ccc(C2C3=C(COC3=O)Nc3ccc4cc[nH]c4c32)cc1O (centres unmarked)")
3.45
>>> val("COc1nc2c(c(OC)n1)C(c1cc(OC)c(OC)c(OC)c1)C1=C(COC1=O)N2 (centres unmarked)")
3.34
>>> val("COc1cc(C2C3=C(COC3=O)Nc3ccc4cc[nH]c4c32)ccc1O (centres unmarked)")
3.30
>>> val("COc1ccc(C2C3=C(COC3=O)Nc3ccc4cc(C)[nH]c4c32)cc1O (centres unmarked)")
2.23
>>> val("COc1ccc(C2C3=C(COC3=O)Nc3ccc4ncsc4c32)cc1O (centres unmarked)")
2.20

---

// GI50 collected for A-549
endpoint.name: GI50

>>> val("COc1ccc(C2C3=C(COC3=O)Nc3ccc4cc[nH]c4c32)cc1O (stereo not shown) [Compound 4g]")
"2300 nM"
>>> val("COc1cc(C2C3=C(COC3=O)Nc3onc(-c4ccc(Cl)cc4)c32)cc(OC)c1OC (stereo not shown) [Compound 4ac]")
"< 100 nM"
>>> val("COc1nc2c(c(OC)n1)C(c1ccc(F)c(OC)c1)C1=C(COC1=O)N2 (stereo not shown) [Compound 4d]")
"2600 nM"
>>> val("COc1ccc(C2C3=C(COC3=O)Nc3ccc4cc(C)[nH]c4c32)cc1O (stereo not shown) [Compound 4k]")
"< 100 nM"
>>> val("COc1nc2c(c(OC)n1)C(c1cc(OC)c(OC)c(OC)c1)C1=C(COC1=O)N2 (stereo not shown) [Compound 4a]")
"2100 nM"
>>> val("COc1ccc(-c2noc3c2C(c2ccc(OC)c(O)c2)C2=C(COC2=O)N3)cc1 (stereo not shown) [Compound 4ab]")
"< 100 nM"
>>> val("COc1cc(C2C3=C(COC3=O)Nc3ccc4ncsc4c32)ccc1O (stereo not shown) [Compound 4t]")
"< 100 nM"

---

endpoint.name: melting point

>>> val("COc1cc(C2C3=C(COC3=O)Nc3ccc4cn[nH]c4c32)ccc1F (stereo not shown)")
"307 to 309 °C"
>>> val("COc1cc(C2C3=C(COC3=O)Nc3ccc4nn[nH]c4c32)cc(OC)c1OC (stereo not shown)")
"324 to 325 °C"
>>> val("COc1cc(C2C3=C(COC3=O)Nc3c2cc(OC)c(OC)c3OC)ccc1O (stereo not shown)")
"290 to 291 °C"
>>> val("COc1cc(C2C3=C(COC3=O)Nc3ccc4cc[nH]c4c32)cc(OC)c1OC (stereo not shown)")
"299 to 301 °C"
>>> val("COc1ccc(-c2noc3c2C(c2ccc(OC)c(O)c2)C2=C(COC2=O)N3)cc1 (stereo not shown)")
"219 to 221 °C"
>>> val("COc1cc(C2C3=C(COC3=O)Nc3ccc4cc(C)[nH]c4c32)ccc1F (stereo not shown)")
"198 to 199 °C"
>>> val("COc1cc(C2C3=C(COC3=O)Nc3ccc4cc[nH]c4c32)ccc1O (stereo not shown)")
"301 to 303 °C"
>>> val("COc1ccc(C2C3=C(COC3=O)Nc3ccc4cn[nH]c4c32)cc1O (stereo not shown)")
"243 to 245 °C"
>>> val("COc1ccc(C2C3=C(COC3=O)Nc3ccc4cc(C)[nH]c4c32)cc1O (stereo not shown)")
"293 to 294 °C"
>>> val("COc1cc(C2C3=C(COC3=O)Nc3ccc4nc(C)sc4c32)ccc1O (stereo not shown)")
"293 to 295 °C"

---

Here, each record is paired with measured GI50 data.
# System: A-549
endpoint.name: GI50

>>> val("COc1ccc(C2C3=C(COC3=O)Nc3ccc4ncsc4c32)cc1O (stereo not drawn)")
"< 100 nM"
>>> val("COc1cc(C2C3=C(COC3=O)Nc3ccc4ncsc4c32)cc(OC)c1OC (stereo not drawn)")
"2400 nM"
>>> val("COc1cccc2c1C(=O)c1c(O)c3c(c(O)c1C2=O)C[C@@](O)(C(=O)CO)C[C@@H]3O[C@H]1C[C@H](N)[C@H](O)[C@H](C)O1 [ADR, adriamycin, reference compound]")
"< 100 nM"
>>> val("COc1cc(C2C3=C(COC3=O)Nc3ccc4cc[nH]c4c32)ccc1F (stereo not drawn)")
"2200 nM"
>>> val("COc1cc(C2C3=C(COC3=O)Nc3ccc4cn[nH]c4c32)cc(OC)c1OC (stereo not drawn)")
"< 100 nM"
>>> val("COc1cc(C2C3=C(COC3=O)Nc3ccc4cn[nH]c4c32)ccc1F (stereo not drawn)")
"2300 nM"
>>> val("COc1cc(C2C3=C(COC3=O)Nc3ccc4nc(C)sc4c32)ccc1O (stereo not drawn)")
"< 100 nM"
>>> val("COc1cc(C2C3=C(COC3=O)Nc3ccc4cc[nH]c4c32)cc(OC)c1OC (stereo not drawn)")
"2400 nM"
>>> val("COc1ccc(C2C3=C(COC3=O)Nc3ccc4cn[nH]c4c32)cc1[N+](=O)[O-] (stereo not drawn)")
"< 100 nM"

---

endpoint.name: melting point

>>> val("COc1nc2c(c(OC)n1)C(c1ccc(O)c(OC)c1)C1=C(COC1=O)N2 (stereo not drawn) [Compound 4b]")
"294 to 296 °C"
>>> val("COc1cc(C2C3=C(COC3=O)Nc3ccc4cn[nH]c4c32)ccc1O (stereo not drawn) [Compound 4o]")
"238 to 240 °C"
>>> val("COc1ccc(-c2noc3c2C(c2cc(OC)c(OC)c(OC)c2)C2=C(COC2=O)N3)cc1 (stereo not drawn) [Compound 4aa]")
"218 to 219 °C"
>>> val("COc1ccc(C2C3=C(COC3=O)Nc3ccc4nc(S)[nH]c4c32)cc1O (stereo not drawn) [Compound 4x]")
"334 to 337 °C"
>>> val("COc1cc(C2C3=C(COC3=O)Nc3ccc4nc(C)sc4c32)ccc1[N+](=O)[O-] (stereo not drawn) [Compound 4w]")
"190 to 191 °C"
>>> val("COc1cc(C2C3=C(COC3=O)Nc3ccc4ncsc4c32)cc(OC)c1OC (stereo not drawn) [Compound 4s]")
"309 to 310 °C"
>>> val("COc1cc(C2C3=C(COC3=O)Nc3ccc4ncsc4c32)ccc1O (stereo not drawn) [Compound 4t]")
"296 to 297 °C"
>>> val("COc1nc2c(c(OC)n1)C(c1cc(OC)c(OC)c(OC)c1)C1=C(COC1=O)N2 (stereo not drawn) [Compound 4a]")
"299 to 300 °C"
>>> val("COc1ccc(C2C3=C(COC3=O)Nc3ccc4cn[nH]c4c32)cc1[N+](=O)[O-] (stereo not drawn) [Compound 4r]")
"217 to 218 °C"
>>> val("COc1ccc(C2C3=C(COC3=O)Nc3ccc4nn[nH]c4c32)c(F)c1 (stereo not drawn) [Compound 4z]")
"308 to 310 °C"
>>> val("COc1nc2c(c(OC)n1)C(c1ccc(F)c(OC)c1)C1=C(COC1=O)N2 (stereo not drawn) [Compound 4d]")
"267 to 270 °C"
>>> val("COc1cc(C2C3=C(COC3=O)Nc3ccc4cc[nH]c4c32)ccc1F (stereo not drawn) [Compound 4h]")
"170 to 172 °C"
>>> val("COc1ccc(C2C3=C(COC3=O)Nc3onc(-c4ccc(Cl)cc4)c32)cc1O (stereo not drawn) [Compound 4ad]")
"245 to 246 °C"
>>> val("COc1ccc(C2C3=C(COC3=O)Nc3ccc4ncsc4c32)cc1O (stereo not drawn) [Compound 4u]")
"327 to 329 °C"
>>> val("COc1cc(C2C3=C(COC3=O)Nc3onc(-c4ccc(Cl)cc4)c32)cc(OC)c1OC (stereo not drawn) [Compound 4ac]")
"248 to 249 °C"
>>> val("COc1ccc(C2C3=C(COC3=O)Nc3ccc4cc[nH]c4c32)cc1O (stereo not drawn) [Compound 4g]")
"297 to 299 °C"
>>> val("COc1nc2c(c(OC)n1)C(c1ccc(OC)c(O)c1)C1=C(COC1=O)N2 (stereo not drawn) [Compound 4c]")
"284 to 285 °C"
>>> val("COc1ccc(C2C3=C(COC3=O)Nc3ccc4cc(C)[nH]c4c32)c(F)c1 (stereo not drawn) [Compound 4m]")
"205 to 207 °C"

Data provenance: patent US8927560B2
